Biological target: Vascular endothelial growth factor receptor 2 (Homo sapiens) (UniProt P35968)
Sequence (P35968 whole entry): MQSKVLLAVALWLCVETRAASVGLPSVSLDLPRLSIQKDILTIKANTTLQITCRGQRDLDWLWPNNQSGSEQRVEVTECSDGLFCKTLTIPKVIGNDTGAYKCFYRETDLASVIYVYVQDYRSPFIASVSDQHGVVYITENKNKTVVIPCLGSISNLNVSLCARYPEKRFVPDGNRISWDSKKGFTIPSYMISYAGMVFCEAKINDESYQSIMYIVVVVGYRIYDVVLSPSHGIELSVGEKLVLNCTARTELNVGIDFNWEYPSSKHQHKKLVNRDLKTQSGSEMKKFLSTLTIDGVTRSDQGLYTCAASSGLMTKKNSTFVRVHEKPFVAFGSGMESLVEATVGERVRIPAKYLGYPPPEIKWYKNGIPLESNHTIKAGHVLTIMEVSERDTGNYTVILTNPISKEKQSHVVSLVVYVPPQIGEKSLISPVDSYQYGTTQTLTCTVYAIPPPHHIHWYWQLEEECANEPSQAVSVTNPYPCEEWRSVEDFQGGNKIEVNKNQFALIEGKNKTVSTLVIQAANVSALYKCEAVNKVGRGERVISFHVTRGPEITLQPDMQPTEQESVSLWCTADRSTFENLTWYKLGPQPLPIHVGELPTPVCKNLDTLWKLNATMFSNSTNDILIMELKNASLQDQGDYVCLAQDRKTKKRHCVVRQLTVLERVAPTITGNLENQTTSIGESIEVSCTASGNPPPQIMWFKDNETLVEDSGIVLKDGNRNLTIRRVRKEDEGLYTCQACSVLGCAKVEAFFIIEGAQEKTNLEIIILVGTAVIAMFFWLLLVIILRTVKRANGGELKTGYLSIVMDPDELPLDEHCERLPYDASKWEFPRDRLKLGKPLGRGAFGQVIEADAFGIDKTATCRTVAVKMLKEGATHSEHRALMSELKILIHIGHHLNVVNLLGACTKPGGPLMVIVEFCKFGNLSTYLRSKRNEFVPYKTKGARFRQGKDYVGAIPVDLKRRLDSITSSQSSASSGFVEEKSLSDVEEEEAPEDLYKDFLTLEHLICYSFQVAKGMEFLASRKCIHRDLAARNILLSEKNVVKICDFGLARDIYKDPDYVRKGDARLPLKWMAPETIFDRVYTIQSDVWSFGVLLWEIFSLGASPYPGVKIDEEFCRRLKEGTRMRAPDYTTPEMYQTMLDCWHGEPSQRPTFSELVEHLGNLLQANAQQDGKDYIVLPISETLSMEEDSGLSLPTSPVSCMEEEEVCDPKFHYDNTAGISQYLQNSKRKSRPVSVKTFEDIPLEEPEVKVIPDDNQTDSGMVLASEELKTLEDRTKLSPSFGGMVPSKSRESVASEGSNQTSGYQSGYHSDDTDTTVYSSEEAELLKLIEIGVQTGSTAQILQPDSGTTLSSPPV
Conditions: at 0.1 µM
Description: GSK_PKIS: KDR mean inhibition at 0.1 uM [Nanosyn]
Attribute measured: inhibition (%)
Give the quantity in %, number only.

Qu. What value of inhibition has been reported for the following compound? Cc1cc(O)cc(C)c1/C=C/c1cncc(-c2nn[nH]n2)c1
Ans. 4.58

Qu. Query CCCN1CCC=C(c2ccc(Nc3nc(Nc4ccccc4C(N)=O)c4cc[nH]c4n3)c(C)c2)C1 next
Ans. 0.98

Qu. Could you do the same for COc1cc2ncn(-c3cc(OCc4ccccc4Cl)c(C(N)=O)s3)c2cc1OC , please?
Ans. 12.2

Qu. Same thing, different compound: CCCN1CCC(Oc2cc(Nc3nc(Nc4cccc(F)c4C(N)=O)c4cc[nH]c4n3)c(OC)cc2Cl)CC1
Ans. 9.18

Qu. // repeat for NC(=O)c1cccc(Nc2nccc(Nc3cccc4[nH]ncc34)n2)c1 and report
Ans. 16.1
